Entries and their %Inh values follow.
tested on: FGFR1; settings: concentration: 1 μM,replicates: in singlicate; n = 1;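 note: KINOMEscan kinase panel screen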
property_name: %Inh (%)

Cc1ccn2nc(-c3ccc(F)cc3)c(-c3ccncc3)c2c1.Cl: 0
Cl.c1ccc(Oc2ccc(Nc3ccnc4cc(-c5ccc(CN6CCNCC6)o5)ccc34)cc2)nc1: 0
CSc1nccc(-c2c(-c3ccc(F)cc3)ncn2CCCN2CCOCC2)n1.Cl: 0
c1ccc(Oc2ccc(Nc3ccnc4ccc(-c5ccccn5)cc34)cc2)cc1: 0
O=C(Nc1cccc(Oc2ccc3nccn3n2)c1)Nc1cccc(C(F)(F)F)c1: 29
CN(c1cccc(CNc2nc(Nc3ccc4c(c3)CC(=O)N4)ncc2C(F)(F)F)c1)S(C)(=O)=O: 26
CS(=O)c1ccc(-c2coc3ccc(-c4n[nH]c(=O)o4)cc23)cc1 (centres unmarked): 5
C[C@@H]1CNc2c(sc3ccc4nc(-c5ccncc5)ccc4c23)C(=O)N1: 9
